All figures here come from paper PMC12040169.

testSummary: in vitro
measurementParameters: human, hela cells, % viability
metricName: viability at 28.5 h, 10 µM (%)
Kindly answer with a numeric value in %, unit omitted.

# annotated cases, reported viability at 28.5 h, 10 µM shown
>>> df
                                   molecule  unitstring  recordedresult
0  CC(=O)N1CCC[C@H]2NC(=O)CNC(=O)C3(C/C=C/C[C@H]21)CCN(C(=O)C1CCC1)CC3 [CBK292177]           %             109
1  Cc1ccccc1CN1CC[C@@H]2[C@H](C1)[C@@H](c1ccc(F)cc1)CN2C(=O)c1cccs1 [CBK285546]           %            86.8
2  Nc1ncc(-c2ccccc2)nc1NCc1cccnc1 [CBK063452]           %             116

Shift focus to the following entry.
Quote viability at 28.5 h, 10 µM reported for COc1cc(/C=C2/SC(=N)NC2=O)ccc1OCc1ccccc1[N+](=O)[O-] [CBK262181] please.
85.4
